assay: Compound was tested in vitro for loss of compound after 30 min exposure to liver microsomes of human at 25 uM concentration; type: ADME, organism-based; conditions: read-out: Metabolism
metric-name: metabolised at 0.5 h, 25 µM (%)
Express it in %; write the number only.

Previously resolved entries follow.
Qu. Quick one: metabolised at 0.5 h, 25 µM for Cc1cc(C(=O)Nc2cccn([C@@H](Cc3ccc(F)c(F)c3)C(=O)N[C@H](/C=C/C(=O)OC(C)C)C[C@@H]3CCNC3=O)c2=O)no1 ?
Ans. 56

Qu. Quick one: metabolised at 0.5 h, 25 µM for CCOC(=O)/C=C/[C@H](C[C@@H]1CCNC1=O)NC(=O)[C@H](Cc1ccc(F)c(F)c1)n1cccc(NC(=O)c2cc(C)on2)c1=O ?
Ans. 81

Qu. Quick one: metabolised at 0.5 h, 25 µM for CC[C@@H](C(=O)N[C@H](/C=C/C(=O)OCc1ccccc1)C[C@@H]1CCNC1=O)n1cccc(NC(=O)c2cc(C)on2)c1=O ?
Ans. 56

Qu. Quick one: metabolised at 0.5 h, 25 µM for C#CC[C@@H](C(=O)N[C@H](/C=C/C(=O)OCc1ccccc1)C[C@@H]1CCNC1=O)n1cccc(NC(=O)c2cc(C)on2)c1=O ?
Ans. 52

Qu. Quick one: metabolised at 0.5 h, 25 µM for CC[C@@H](C(=O)N[C@H](/C=C/C(=O)OC1CCC1)C[C@@H]1CCNC1=O)n1cccc(NC(=O)c2cc(C)on2)c1=O ?
Ans. 49

Switching to the query record.
Qu. Quick one: metabolised at 0.5 h, 25 µM for C#CC[C@@H](C(=O)N[C@H](/C=C/C(=O)OCC)C[C@@H]1CCNC1=O)n1cccc(NC(=O)c2cc(C)on2)c1=O ?
Ans. 40
